- assayOverview: Viability qHTS for spleen associated tyrosine kinase inhibitor (SYKi) drug resistant MV4-11 cells (AID 1963824); further: nearly all actives have a fitted effect of over 35% in size; further: potency means the concentration at half of the fitted maximal effect
- condition: SYKi-resistant MV4-11 viability, CellTiter-Glo, 72 h; series mostly up to 45 µM
- Protocol: Department of Medicine, Hematology/Oncology University Hospital Frankfurt, Germany. Trials have shown promising clinical activity of the selective SYK inhibitor entospletinib in patients with high expressing HOXA9/MEIS1 acute leukemias. […] 7; Detection; Luminescence; ViewLux plate reader (PerkinElmer). […] 1. Quantitative high-throughput screening (qHTS) of small molecule compounds was conducted on drug resistant SYKi MV4-11 cell line. […] 7. Luminescence was measured on a ViewLux plate reader (PerkinElmer).
Inconclusive results are not listed. Calls of active or inactive are those of the source. The call rests on the fitted dose curve; in most records, active means well fitted cell-killing curve with a large enough effect; inconclusive means small, poorly fitted or top-dose-only effect, or effect the other way; inactive means no such curve, though single readings can be large or run the other way.
measuredProperty: Potency

Check out these entries, answers already filled in.
Cc1nc2c(O)cccc2c(=O)[nH]1 | inactive
NS(=O)(=O)c1ccc(Nc2nc(OCC3CCCCC3)c3[nH]cnc3n2)cc1 | 651 nM (active)
Cc1cc2c(cc1S(N)(=O)=O)S(=O)(=O)CCC2 | inactive
CCN(CC)C(=O)c1ccc(O)c(OC)c1 | inactive
COc1cc(/C=C/C(=O)O[C@H]2[C@H](OC(=O)/C=C/c3cc(OC)c(O)c(OC)c3)O[C@H](CO[C@@H]3O[C@H](CO)[C@@H](O)[C@H](O)[C@H]3O)[C@@H](O)[C@@H]2O)ccc1O | inactive

Which measured Potency value corresponds to "Nc1ncnc(Nc2ccc(OCc3ccccc3)c(Cl)c2)c1/C=N/OCCN1CCOCC1" ? 7420 nM (active)

# lookup: Potency of COC(=O)[C@H](O)[C@H]1C(C)(C)[C@H](OC(=O)C(C)C)[C@@]2(O)C(=O)[C@]1(C)C1CC[C@]3(C)C(CC(=O)O[C@H]3c3ccoc3)[C@]13O[C@@H]32 (some centres not stated) inactive

For "C=C1C[C@]23C[C@H]1CC[C@H]2C1=C[C@H]2OC(=O)[C@@](C)([C@H]1[C@@H]3C(=O)O)[C@H]2O" , what is its reported Potency? inactive

I am curious: what Potency value has been reported for "C(=C\c1ccccc1)/CN1CCN(C(c2ccccc2)c2ccccc2)CC1" ? inactive

----------
- assayOverview: Cellular viability qHTS for adrenocortical cancer (ACC) cell line SW-13 (AID 1963989);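 further: cells grown in serum-free medium with ITS supplement; on the % scale 0 is the no-effect control and ±100 the full control effect; nearly all actives have a fitted effect of over 65% in size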
- condition: SW-13 ACC cells viability, CellTiter-Glo, 48 h; active compounds read low
- Text: PI: Naris Nilubol, MD Surgical Oncology Program, National Cancer Institute (NCI) National Institute of Health (NIH), Bethesda, Maryland Adrenocortical cancer (ACC) is a rare malignancy with poor survival outcomes and few treatment options. Currently, mitotane is the only FDA-approved therapy for ACC. […] Through a quantitative high-throughput drug screen (qHTS), we identified auranofin (AF), a thioredoxin reductase (TXNRD) inhibitor, as a promising candidate drug. […]
Records with an inconclusive call do not appear.
measuredProperty: activity (max response) (%)
The figure you give is taken to be in %; do not add the unit.

Report activity (max response) for "O=Cc1ccc(O)c(O)c1O" please. -7.42

Look at this compound and give its reported activity (max response). "O=C(O)c1cc(=O)c2ccccc2o1" -0.886

Need activity (max response) of "COc1cc(OC)nc(O[C@H](C(=O)O)C(OC)(c2ccccc2)c2ccccc2)n1" , thanks. 12.1

Report activity (max response) for CC(CC(C#N)(c1ccccc1)C(C)C)N(C)C (stereo not given) please. 3.72

Fill blank: measured activity (max response) of the compound "C[C@H]1C[C@H]2[C@@H]3CCC4=CC(=O)C=C[C@]4(C)[C@@]3(Cl)[C@@H](O)C[C@]2(C)[C@@]1(O)C(=O)CO" is ____. -3.23

Endpoint output: activity (max response) of "CCN1CCN(C(=O)N[C@@H](C(=O)N[C@@H]2C(=O)N3[C@@H]2SC(C)(C)[C@H]3C(=O)O)c2ccccc2)C(=O)C1=O" . Value? 12.1

Which activity (max response) is reported for this compound? "CO[C@]1(NC(=O)CSC(F)F)C(=O)N2C(C(=O)O)=C(CSc3nnnn3CCO)CO[C@H]21" -9.56

Fill in the blank: the reported activity (max response) of "O=c1sn(-c2cccc3ccccc23)c(=O)n1Cc1ccccc1" is ____. -18.3

Consider the compound C[C@]12CC[C@H](O)CC1=CCC1C2CC[C@]2(C)C(n3cnc4ccccc43)=CCC12 (stereo not given in full) and give its measured activity (max response). -10.3

Recorded activity (max response) of CCCCCOc1ccc(C2SC(=O)NC2=O)cc1OCC (stereo not given) , please. -6.25
